Molecular target: Histamine H1 receptor (Cavia porcellus, UniProt P31389)
Sequence (P31389 whole entry): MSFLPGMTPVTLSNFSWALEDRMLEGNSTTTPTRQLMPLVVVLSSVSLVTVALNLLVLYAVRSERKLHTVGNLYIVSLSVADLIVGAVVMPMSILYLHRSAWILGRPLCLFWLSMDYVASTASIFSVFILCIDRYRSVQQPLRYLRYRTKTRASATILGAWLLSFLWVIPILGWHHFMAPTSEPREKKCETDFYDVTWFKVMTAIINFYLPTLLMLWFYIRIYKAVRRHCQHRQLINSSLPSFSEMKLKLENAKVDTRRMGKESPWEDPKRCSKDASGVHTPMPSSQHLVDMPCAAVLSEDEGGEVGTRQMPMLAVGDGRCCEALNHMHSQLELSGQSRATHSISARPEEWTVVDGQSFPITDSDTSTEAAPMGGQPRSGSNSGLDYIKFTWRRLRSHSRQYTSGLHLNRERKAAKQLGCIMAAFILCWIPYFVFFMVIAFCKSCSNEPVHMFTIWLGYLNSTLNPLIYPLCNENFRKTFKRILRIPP
Test: In vitro for histamine H1 receptor antagonist activity against histamine-induced contractions on isolated guinea pig ileum
Assay type: functional, tissue-based
pIC50: −log10 of the molar value.
recorded endpoint: pIC50

- compound: "CN(C)CCCN1C(=O)CSC1c1ccc(F)cc1 (stereo not drawn)"
  pIC50: 4.62

a = Cc1cccc(C2SCC(=O)N2CCCN(C)C)c1 (stereo not drawn)
b = CN(C)CCCN1C(=O)CSC1c1ccccc1 (stereo not drawn)
Which value of pIC50 is numerically greater: that of a or that of b ? Your answer should be the label attached to the chosen record.
a

###

Biological target: UniProt P31389
Assay: Compound was tested in vitro for histamine H1-antagonist activity against histamine-induced contractions on isolated guinea pig ileum
Assay type: functional, tissue-based
pIC50: −log10 of the molar value.
recorded endpoint: pIC50

Quick one: give measured pIC50 for CN(C)CCCN1C(=O)CSC1c1ccncc1 (stereo unspecified)
< 4.00
